Values compiled from patent US9458181B2.

biological target: UniProt P43236; test: Cathepsin K Assay (hrbCat K); format: biochemical; details: human cathepsin K 0.4 nM, Z-Leu-Arg-AMC 8 μM, pH 5.5, 15 min preincubation; read-out: hrbCat K IP
pIC50: −log10 of the molar value.
Recorded endpoint: pIC50

These solved cases illustrate the format of a correct answer.
[[record]]
compound = "N#CC1(NC(=O)[C@@H]2CCCC[C@H]2c2oc(-c3cccc(C4CC4)c3)nc2-c2ccc(N3CCS(=O)(=O)CC3)cc2)CC1"
result_number = 9.19

[[record]]
compound = "N#CC1(NC(=O)[C@@H]2CC3CC3C[C@H]2c2oc(-c3ccc(F)cn3)nc2-c2ccc(N3CCS(=O)(=O)CC3)cc2)CC1 (single isomer, unassigned) [Example 9]"
result_number = 8.45

[[record]]
compound = "COc1cccc(-c2nc(-c3ccc(N4CCS(=O)(=O)CC4)cc3)c([C@@H]3CCCC[C@H]3C(=O)NC3(C#N)CC3)o2)c1"
result_number = 8.80


a. N#CC1(NC(=O)[C@@H]2CCCC[C@H]2c2oc(-c3ccc(F)cc3Cl)nc2-c2ccc(N3CCS(=O)(=O)CC3)cc2)CC1
b. N#CC1(NC(=O)[C@@H]2CC(C(F)F)CC[C@H]2c2oc(-c3ccc(F)cc3)nc2-c2ccc(N3CCS(=O)(=O)CC3)cc2)CC1 (mixture of isomers)
INPUT: Of a versus b , which is the one with smaller reported pIC50? Your answer should be the label of the entry you select.
OUTPUT: b
